This listing pairs binders with measured pKd.
measurementTarget: T1, human PCSK9 (proprotein convertase subtilisin/kexin type 9), His-tagged, full-length (human, UniProt A8T644 31-152; Q8NBP7 153-692, limits assumed)
T1 construct: The secreted protein is the prodomain plus the catalytic/Cys-rich part (N-terminus S153) after autocleavage; also called His-PCSK9; NARC-1
T1 sequence (A8T644 31-152 limits assumed, chain 1 of 2): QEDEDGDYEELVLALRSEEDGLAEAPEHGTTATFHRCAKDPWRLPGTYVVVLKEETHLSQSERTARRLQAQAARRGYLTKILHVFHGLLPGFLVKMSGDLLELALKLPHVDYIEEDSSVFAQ
T1 sequence (A8T644 other isoform, or with tags, fused parts or gaps limits assumed, chain 2 of 2): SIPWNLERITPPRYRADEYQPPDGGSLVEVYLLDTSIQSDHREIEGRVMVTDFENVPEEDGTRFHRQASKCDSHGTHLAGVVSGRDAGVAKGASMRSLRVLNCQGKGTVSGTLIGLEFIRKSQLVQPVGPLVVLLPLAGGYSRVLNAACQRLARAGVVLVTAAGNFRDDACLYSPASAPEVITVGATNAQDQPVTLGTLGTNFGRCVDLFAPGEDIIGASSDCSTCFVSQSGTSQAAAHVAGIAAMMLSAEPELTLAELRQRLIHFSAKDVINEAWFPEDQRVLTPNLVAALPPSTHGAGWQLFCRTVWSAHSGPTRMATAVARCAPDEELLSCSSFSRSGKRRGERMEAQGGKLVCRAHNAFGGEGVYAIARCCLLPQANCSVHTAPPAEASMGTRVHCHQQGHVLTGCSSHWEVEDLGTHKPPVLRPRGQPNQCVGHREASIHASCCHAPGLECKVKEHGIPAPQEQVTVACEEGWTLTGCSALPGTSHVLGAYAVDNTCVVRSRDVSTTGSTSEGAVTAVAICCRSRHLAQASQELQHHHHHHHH
procedureText: SPR, SensiQ Pioneer FE, amine-coupled protein, OneStep gradient injection (Method 3)
pKd: −log10 of the molar value. Bridge positions count the residues as written; N and C are the ends.
readout: pKd

1. Ac-WNLVRIGLLR-NH2 [Compound 53]	3.65
2. Ac-LMPWNLVRIGLLR-NH2 [Compound 50]	4.79
3. Ac-CRLPWNLQRIGLPC-NH2 (disulfide 1-14 (inferred)) [Compound 32]	5.89

Source of measurements: patent US20190177366A1
